test-system: UniProt:P61823
Sequence (P61823 whole entry, looked up): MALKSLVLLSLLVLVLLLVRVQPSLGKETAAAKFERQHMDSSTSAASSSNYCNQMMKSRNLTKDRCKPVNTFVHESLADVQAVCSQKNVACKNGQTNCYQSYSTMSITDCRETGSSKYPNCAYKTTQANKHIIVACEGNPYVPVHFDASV
procedure-text: Inhibition of RNase A-mediated degradation of yeast tRNA assessed as residual tRNA band by agarose gel electrophoresis relative to control
measured-property: Ratio
Reply with just the number.

Consider the worked cases shown below.
Nc1ccn([C@@H]2O[C@H](CO)[C@@H](OP(=O)(O)O)[C@H]2O)c(=O)n1    0.71
Oc1ccc([C@@H]2c3c(O)cc(O)cc3O[C@H](c3ccc(O)c(O)c3)[C@H]2O)c(O)c1    0.612

The reported Ratio of the compound Oc1ccc([C@H]2c3c(O)cc(O)cc3O[C@H](c3ccc(O)c(O)c3)[C@@H]2O)c(O)c1 was 0.659

The reported Ratio of the compound Oc1cc(O)c([C@H]2c3c(O)cc(O)cc3O[C@H](c3ccc(O)c(O)c3)[C@@H]2O)c(O)c1 was 0.704

The reported Ratio of the compound Oc1cc(O)c([C@@H]2c3c(O)cc(O)cc3O[C@H](c3ccc(O)c(O)c3)[C@@H]2O)c(O)c1 was 0.699

The reported Ratio of the compound Oc1cc(O)c2c(c1)O[C@H](c1ccc(O)c(O)c1)[C@H](O)C2 was 0.295

The reported Ratio of the compound Oc1cc(O)c2c(c1)OC(c1ccc(O)c(O)c1)C(O)C2 (configuration not stated) was 0.331
